- subject of test: T1, HLA-A2/E7(11-19) tetramer (human; HPV 16)
- T1 construct: also called E7(11-19) peptide-MHC tetramer; E7 tet
- experiment description: flow cytometry, tetramer + anti-CD8; transfected mix of CD8- and CD8+ Jurkat-derived cells;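 further: cells transiently transfected with TCR-encoding plasmids, analysed 48 h afterwards by co-staining with HLA-A*02:01 peptide tetramer and anti-CD8 antibody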
So basically: is % cells E7 tet+/CD8- quadrant under 2%? Then fulfilled. Not under? Then not fulfilled.

As a guide, the following entries are already answered.
- binder: "TCR 45 (codon-optimized, cysteine-modified) (TCR, V domains shown) V domain 1: GQQVMQIPQYQHVQEGEDFTTYCNSSTTLSNIQWYKQRPGGHPVFLIQLVKSGEVKKQKRLTFQFGEAKKNSSLHITATQTTDVGTYFCAGSSGAGSYQLTFGKGTKLSVIP V domain 2: GAGVSQSPSNKVTEKGKDVELRCDPISGHTALYWYRQRLGQGLEFLIYFQGNSAPDKSGLPSDRFSAERTGESVSTLTIQRTQQEDSAVYLCASSLYLGTTGELFFGEGSRLTVLE"
  label class: "not fulfilled"
- binder: "TCR 50 (codon-optimized, cysteine-modified) (TCR, V domains shown) V domain 1: GEDVEQSLFLSVREGDSSVINCTYTDSSSTYLYWYKQEPGAGLQLLTYIFSNMDMKQDQRLTVLLNKKDKHLSLRIADTQTGDSAIYFCAESPPGTYKYIFGTGTRLKVLA V domain 2: DSGVTQTPKHLITATGQRVTLRCSPRSGDLSVYWYQQSLDQGLQFLIHYYNGEERAKGNILERFSAQQFPDLHSELNLSSLELGDSALYFCASSATRDAYGYTFGSGTRLTVVE"
  label class: "fulfilled"
- binder: "TCR 49 (codon-optimized, cysteine-modified) (TCR, V domains shown) V domain 1: QKEVEQNSGPLSVPEGAIASLNCTYSDRGSQSFFWYRQYSGKSPELIMFIYSNGDKEDGRFTAQLNKASQYVSLLIRDSQPSDSATYLCAVNIGTSGTYKYIFGTGTRLKVLA V domain 2: EPEVTQTPSHQVTQMGQEVILRCVPISNHLYFYWYRQILGQKVEFLVSFYNNEISEKSEIFDDQFSVERPDGSNFTLKIRSTKLEDSAMYFCASTPRYSYEQYFGPGTRLTVTE"
  label class: "not fulfilled"
- binder: "TCR 41 (codon-optimized, cysteine-modified) (TCR, V domains shown) V domain 1: RKEVEQDPGPFNVPEGATVAFNCTYSNSASQSFFWYRQDCRKEPKLLMSVYSSGNEDGRFTAQLNRASQYISLLIRDSKLSDSATYLCVVTFALTGGFKTIFGAGTRLFVKA V domain 2: EPEVTQTPSHQVTQMGQEVILRCVPISNHLYFYWYRQILGQKVEFLVSFYNNEISEKSEIFDDQFSVERPDGSNFTLKIRSTKLEDSAMYFCASNPRDRVSYEQYFGPGTRLTVTE"
  label class: "not fulfilled"

-- ask Determine whether this binder shows % cells E7 tet+/CD8- quadrant lower than 2% (ties excluded): TCR 34 (codon-optimized, cysteine-modified) (TCR, V domains shown) V domain 1: ELKVEQNPLFLSMQEGKNYTIYCNYSTTSDRLYWYRQDPGKSLESLFVLLSNGAVKQEGRLMASLDTKARLSTLHITAAVHDLSATYFCAVSGTYKYIFGTGTRLKVLA V domain 2: ETGVTQSPTHLIKTRGQQVTLRCSSQSGHNTVSWYQQALGQGPQFIFQYYREEENGRGNFPPRFSGLQFPNYSSELNVNALELDDSALYLCASSSYAGSYEQYFGPGTRLTVTE
-- reply not fulfilled

-- ask Also TCR 53 (codon-optimized, cysteine-modified) (TCR, V domains shown) V domain 1: AQSVAQPEDQVNVAEGNPLTVKCTYSVSGNPYLFWYVQYPNRGLQFLLKYITGDNLVKGSYGFEAEFNKSQTSFHLKKPSALVSDSALYFCAVRDFGSGTYKYIFG V domain 2: GAGVSQSPRYKVTKRGQDVALRCDPISGHVSLYWYRQALGQGPEFLTYFNYEAQQDKSGLPNDRFSAERPEGSISTLTIQRTEQRDSAMYRCASSGSGTSGYNEQFFGPGTRLTVLE , if possible.
-- reply fulfilled

-- ask Also TCR 42 (codon-optimized, cysteine-modified) (TCR, V domains shown) V domain 1: GQQVMQIPQYQHVQEGEDFTTYCNSSTTLSNIQWYKQRPGGHPVFLIQLVKSGEVKKQKRLTFQFGEAKKNSSLHITATQTTDVGTYFCAGPDNFNKFYFGSGTKLNVKP V domain 2: EPEVTQTPSHQVTQMGQEVILRCVPISNHLYFYWYRQILGQKVEFLVSFYNNEISEKSEIFDDQFSVERPDGSNFTLKIRSTKLEDSAMYFCAKTSRSSYEQYFGPGTRLTVTE , if possible.
-- reply fulfilled

-- ask Also TCR 39 (codon-optimized, cysteine-modified) (TCR, V domains shown) V domain 1: GQQLNQSPQSMFIQEGEDVSMNCTSSSIFNTWLWYKQEPGEGPVLLIALYKAGELTSNGRLTAQFGITRKDSFLNISASIPSDVGIYFCAGYSSSNDYKLSFGAGTTVTVRA V domain 2: EPEVTQTPSHQVTQMGQEVILRCVPISNHLYFYWYRQILGQKVEFLVSFYNNEISEKSEIFDDQFSVERPDGSNFTLKIRSTKLEDSAMYFCASTPRDRGKEAFFGQGTRLTVVE , if possible.
-- reply not fulfilled

-- ask Also TCR 35 (codon-optimized, cysteine-modified) (TCR, V domains shown) V domain 1: KDQVFQPSTVASSEGAVVEIFCNHSVSNAYNFFWYLHFPGCAPRLLVKGSKPSQQGRYNMTYERFSSSLLILQVREADAAVYYCAVAGDYKLSFGAGTTVTVRA V domain 2: DSGVTQTPKHLITATGQRVTLRCSPRSGDLSVYWYQQSLDQGLQFLIQYYNGEERAKGNILERFSAQQFPDLHSELNLSSLELGDSALYFCASTTSGDSSYNEQFFGPGTRLTVLE , if possible.
-- reply not fulfilled

-- ask Also TCR 48 (codon-optimized, cysteine-modified) (TCR, V domains shown) V domain 1: QKEVEQDPGPLSVPEGAIVSLNCTYSNSAFQYFMWYRQYSRKGPELLMYTYSSGNKEDGRFTAQVDKSSKYISLFIRDSQPSDSATYLCAMRIQGAQKLVFGQGTRLTINP V domain 2: EPEVTQTPSHQVTQMGQEVILRCVPISNHLYFYWYRQILGQKVEFLVSFYNNEISEKSEIFDDQFSVERPDGSNFTLKIRSTKLEDSAMYFCASTGRVSYEQYFGPGTRLTVTE , if possible.
-- reply fulfilled
